# TEST_SUMMARY: passive permeability, PAMPA, ADME assay (AID 1508612)
# CONDITIONS_USED: pH 7.4, 30.0 min, 50.0 µM
Reported Papp is given for each of the following molecules.
Kindly answer with a numeric value in ×10⁻⁶ cm/s, unit omitted.

COc1oc(-c2cccc3ccccc23)nc1C(=O)O :: 1.44
Cc1ccc(S(=O)(=O)Nc2cnccc2C(=O)Nc2ccc(C#N)cc2)cc1 :: 69.6
CCS(=O)(=O)c1nc(-c2ccc(Cl)cc2)cc(C(F)(F)F)n1 :: 975
O=C(NCCCc1ccccc1)C1CCN(c2nc(-c3ccc(Br)cc3)cs2)CC1 :: 18

Now for another entry.
Reported Papp of Cc1ccc(C)n1-c1cccc(C(=O)O)c1 : 34.6

====

Reported Papp is given for each of the following compounds.
# TEST_SUMMARY: passive permeability, PAMPA, ADME assay (AID 1508612)
# CONDITIONS_USED: pH 7.4, 30.0 min, 50.0 µM
Kindly answer with a numeric value in ×10⁻⁶ cm/s, unit omitted.

CCC(CC)c1cc([C@H]2CN3CC[C@H]2C[C@@H]3CNC(C)=O)nc(-c2ccncc2)n1 :: 994
COc1ccc(-n2c(C)c(C(C)=O)c3cc(O)ccc32)cc1 :: 415
Fc1cc(Nc2nc(-c3ccncc3)nc3ccccc23)ccc1-c1ccc(F)c(F)c1F :: 57.5
Cc1ccc2nc(NC3=NC(c4[nH]ncc4Cl)C4=C(CCCC4=O)N3)oc2c1 (stereo not given) :: 997
Cc1ccc(S(=O)(=O)Nc2ccccc2C(=O)Nc2ccc(-c3ccccc3)nc2)cc1 :: 54.3

Reported Papp of CNc1oc(-c2cccc(-c3ccccc3)c2)nc1C#N : 918

Reported Papp of Cc1cc(-c2nnc3n2CCCCC3)c(C)n1-c1ccc(F)cc1 : 314

Reported Papp of Oc1ccc(CNc2cccnc2)c2cccnc12 : 371

Reported Papp of Oc1ccc(Nc2nc(-c3ccncc3)nc3ccccc23)cc1F : 664

Reported Papp of COc1ccc(-n2nc(C3CCCN(C(=O)c4cccc(OC)c4)C3)[nH]c2=O)cc1 (stereo not given) : 436

Reported Papp of CC(=O)c1c(C)[nH]c(C(=O)Nc2cccc([S+](=O)([O-])Nc3ccncc3)c2)c1C : 1.51

====

Reported Papp is given for each of the following molecules.
# TEST_SUMMARY: passive permeability, PAMPA, ADME assay (AID 1508612)
# CONDITIONS_USED: pH 7.4, 30.0 min, 50.0 µM

# count of solved cases: 2
CC(C)NC(=O)c1nc(-c2ccc(Cl)nc2)c2ccccn12 :: > 1000 ×10⁻⁶ cm/s
CN(C(=O)CNC(=O)c1ccccc1OCC(=O)Nc1ccc(I)cc1)c1ccccc1 :: > 1000 ×10⁻⁶ cm/s

Now for another entry.
Reported Papp of C[C@]12N[C@H](Cc3ccccc31)c1ccccc12 : > 1000 ×10⁻⁶ cm/s

====

# TEST_SUMMARY: passive permeability, PAMPA, ADME assay (AID 1508612)
# CONDITIONS_USED: pH 7.4, 30.0 min, 50.0 µM
RESULT_TYPE: Papp

Reported Papp of CCCNC(=O)c1ccc2c(c1)N=C(C)c1c(C)ccc(C)c1S2 : > 1000 ×10⁻⁶ cm/s

Reported Papp of Fc1cnc(-c2ccccc2C(F)F)nc1NCc1ccc(-c2cccnc2)cc1 : > 1000 ×10⁻⁶ cm/s

Reported Papp of CC(=O)Nc1ccc(OCc2cn(CC(=O)c3ccc(O)cc3)nn2)cc1 : < 1 ×10⁻⁶ cm/s

Reported Papp of Cc1ccc(N2CCC(CNc3nc(-c4ccccc4C(C)C)ncc3F)CC2)cn1 : > 1000 ×10⁻⁶ cm/s

Reported Papp of CCn1c(C(=O)N2CCCC(C(=O)NCCc3ccc(C)cc3)C2)cc2sccc21 (stereo unspecified) : > 1000 ×10⁻⁶ cm/s
